Answer each item with its documented protease stability score.
experiment: protease stability score; higher = more stable; yeast display proteolysis, trypsin and chymotrypsin;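 also: relative to predicted unfolded state with 0 unfolded-like and 1 meaning tenfold more protease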
Give your answer as a number; write no unit.

For the sequence shown here, SEVEKHLHNVIELYIRALRTGDEERLRKLLDPHVRVRIGDKHLHGREDWWQHVTRYDHESVHDLKIDHVRVVGNKIEMIITHDIIIIVNGVNLRHSIETEVHARKVDGVWYLTELHHG , give the reported protease stability score. 0.075

Fill blank: measured protease stability score of the sequence DEDLEETRKLIELLTRAFFTGDEDEMKNLADPSVRIIINGREVHGMDEWVRLLEEIRLEDVHSNLRDIRYFNGVVEVDGEFRLDGNINGRRFHHVFDLRLYVIKVNGRWRVKSWRNI is ____. 1.83

Bench note: what protease stability score did SEDEKMFKEMKDLLLEILRTGDEDSWSHLADPDYRMDINGRIDHGMEEASRSLTEFLRKLGIDHLDIKDSKVTLVNGRAIIILHEETKVNGRKFNLRIINIVSKVNGKWSIESFSMSIE show? 1.29

Any idea what protease stability score was measured for SEHEEHLKHISELMVKLFLTGDEELINHLADPDTRLNINGVHFIGREHAVKASKDFWDELGVNHIEIEDRKVINGRVTMTGHVHVGDKYRRTQNYLVVVNGRLKNVEWRID ? 0.806

# input sequence: DEEEEHSKNFLRLWINLWLTGDWRNLLKLADPNAKVVINGVRIHGMEFLVRLLHEEMEQVKNMRIHIHDRRLQGDKSTEILILHFDGVFYETRFHIDIVNGKVRRFQEERE ; wanted: its protease stability score 0.181

Reference source: the NTF2 design screens of Basanta et al. (2020)
